Each recorded value in this set is attributed to PubChem BioAssay (NCI).

Tested on: SNB-19 CNS
Assay: NCI-60 one-dose screen, 48 h (100 = growth as untreated, 0 = no growth, -100 = all killed)
Settings: 10 µM unless noted
The panel holds about 83,000 compounds, 20% with a hit somewhere; the sample as a whole holds those more often. Active and inactive are the calls of the source. How the source made its calls: active means growth percent below 10; inactive means the rest.
Examples of molecules with documented growth follow.

Consider the reported growth for these molecules:
given_smiles=CN(C)P1(N(C)C)=NP(N(C)C)(N(C)C)=NP(N(C)C)(N(C)C)=N1 target_desc="SNB-19 CNS" result="103% (inactive)"
given_smiles=O=C1NC(=S)NC(=O)C1=Cc1ccccc1 target_desc="SNB-19 CNS" result="107% (inactive)"

The measured growth associated with O=C(O)CNC(=O)c1ccccc1 reads 98.6% (inactive)
